Measured IC50 by item
- System: Caki-2 cells
- assay_info: CTG (CellTiter-Glo) cell viability assay, Caki-2
- Type: cell-based
- run_parameters: Homo sapiens, CAKI-2, 72 h, Caki-2, 3-day; read-out: CTG Chempartner/PHA- Caki-2 3-day: Average external-IC50

1) Cc1ncsc1-c1ccc([C@H](C)NC(=O)[C@@H]2C[C@@H](O)CN2C(=O)[C@@H](NC(=O)CCCCCC(=O)NCCCNc2ccc(S(=O)(=O)NC(=O)c3ccc(N4CCN(CC5=C(c6ccc(Cl)cc6)CC(C)(C)CC5)CC4)cc3Oc3cnc4[nH]ccc4c3)cc2S(=O)(=O)C(F)(F)F)C(C)(C)C)cc1 ... > 30 µM

Moving on to the next compound.
Record `Cc1ncsc1-c1ccc([C@H](C)NC(=O)[C@@H]2C[C@@H](O)CN2C(=O)[C@@H](NC(=O)CCCCCC(=O)N2CCN(CC[C@H](CSc3ccccc3)Nc3ccc(S(=O)(=O)NC(=O)c4ccc(N5CCN(CC6=C(c7ccc(Cl)cc7)CC(C)(C)CC6)CC5)cc4)cc3S(=O)(=O)C(F)(F)F)CC2)C(C)(C)C)cc1` has Caki-2 cells IC50 equal to 5 to 10 µM

====

- experimental_target: BCL-XL (Homo sapiens, UniProt Q07817)
- Construct: BCL-XL degradation results in MOLT-4 cells for compounds of the invention; endogenous in cells; host or cells: MOLT-4
- Sequence (Q07817 whole entry): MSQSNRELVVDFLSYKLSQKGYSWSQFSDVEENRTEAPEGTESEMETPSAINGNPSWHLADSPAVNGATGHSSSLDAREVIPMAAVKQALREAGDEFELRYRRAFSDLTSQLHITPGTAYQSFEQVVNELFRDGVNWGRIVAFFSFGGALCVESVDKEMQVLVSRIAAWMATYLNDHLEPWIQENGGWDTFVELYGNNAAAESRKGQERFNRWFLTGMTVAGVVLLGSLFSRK
- assay_info: BCL-XL degradation assay in MOLT-4 cells (ELISA, 6 h)
- Format: cell-based
Attribute: Dmax

1) Cc1ncsc1-c1ccc([C@H](C)NC(=O)[C@@H]2C[C@@H](O)CN2C(=O)[C@@H](NC(=O)CCCCCCN2CCN(CC[C@H](CSc3ccccc3)Nc3ccc(S(=O)(=O)NC(=O)c4ccc(N5CCC([C@@H](O)c6ccccc6-c6ccc(Cl)cc6)CC5)cc4)cc3S(=O)(=O)C(F)(F)F)CC2)C(C)(C)C)cc1 ... > 75%
2) Cc1ncsc1-c1ccc([C@H](C)NC(=O)[C@@H]2C[C@@H](O)CN2C(=O)[C@@H](NC(=O)CCCCCC(=O)N2CCCN(CCCNc3ccc(S(=O)(=O)NC(=O)c4ccc(N5CCN(CC6=C(c7ccc(Cl)cc7)CC(C)(C)CC6)CC5)cc4Oc4cnc5[nH]ccc5c4)cc3S(=O)(=O)C(F)(F)F)CC2)C(C)(C)C)cc1 ... 50 to 75%
3) Cc1ncsc1-c1ccc([C@H](C)NC(=O)[C@@H]2C[C@@H](O)CN2C(=O)[C@@H](NC(=O)CCCCCC(=O)N2CCN(CC[C@H](CSc3ccccc3)Nc3ccc(S(=O)(=O)NC(=O)c4ccc(N5CC6CCC5C6)cc4)cc3S(=O)(=O)C(F)(F)F)CC2)C(C)(C)C)cc1 (stereo partly shown) ... 50 to 75%
4) C#Cc1ccc([C@H](C)NC(=O)[C@@H]2C[C@@H](O)CN2C(=O)[C@@H](NC(=O)CCCCCC(=O)N2CCN(CCCNc3ccc(S(=O)(=O)NC(=O)c4ccc(N5CCN(CC6=C(c7ccc(Cl)cc7)CC(C)(C)CC6)CC5)cc4Oc4cnc5[nH]ccc5c4)cc3S(=O)(=O)C(F)(F)F)CC2)C(C)(C)C)cc1F ... 50 to 75%

Field Dmax (BCL-XL (Homo sapiens, UniProt Q07817)), entry `Cc1ncsc1-c1ccc([C@H](C)NC(=O)[C@@H]2C[C@@H](O)CN2C(=O)[C@@H](NC(=O)CCCCCC(=O)N2CCN(CC[C@H](CSc3ccccc3)Nc3ccc(S(=O)(=O)NC(=O)c4ccc(N5CCN(Cc6ccccc6-c6ccc(Cl)cc6)CC5)cc4)cc3[N+](=O)[O-])CC2)C(C)(C)C)cc1` : > 75%

Result for Cc1ncsc1-c1ccc([C@H](C)NC(=O)[C@@H]2C[C@@H](O)CN2C(=O)[C@@H](NC(=O)CCCCCC(=O)N2CCN(CCCNc3ccc(S(=O)(=O)NC(=O)c4ccc(N5CCC([C@H](O)c6ccccc6-c6ccc(Cl)cc6)CC5)cc4Oc4cnc5[nH]ccc5c4)cc3S(=O)(=O)C(F)(F)F)CC2)C(C)(C)C)cc1 (single isomer, unassigned) , tested on BCL-XL (Homo sapiens, UniProt Q07817), Dmax: 50 to 75%

Assay BCL-XL (Homo sapiens, UniProt Q07817), sample `Cc1ncsc1-c1ccc([C@H](C)NC(=O)[C@@H]2C[C@@H](O)CN2C(=O)[C@@H](NC(=O)CCCCCC(=O)N2CCN(CC[C@H](CSc3ccccc3)Nc3ccc(S(=O)(=O)NC(=O)c4ccc(N5CCN([C@@H](O)c6ccccc6-c6ccc(Cl)cc6)CC5)cc4)cc3S(=O)(=O)C(F)(F)F)CC2)C(C)(C)C)cc1` , Dmax read: > 75%

====

- experimental_target: BCL-XL (Homo sapiens)
- Construct: BCL-XL degradation results in MOLT-4 cells for compounds of the invention; endogenous in cells; host or cells: MOLT-4
- assay_info: BCL-XL degradation assay in MOLT-4 cells (ELISA, 6 h)
- Assay type: cell-based
Here, each record is paired with measured Dmax data.

1) Cc1ncsc1-c1ccc([C@H](C)NC(=O)[C@@H]2C[C@@H](O)CN2C(=O)[C@@H](NC(=O)CCCCCN(C)CCCNc2ccc(S(=O)(=O)NC(=O)c3ccc(N4CCN(CC5=C(c6ccc(Cl)cc6)CC(C)(C)CC5)CC4)cc3Oc3cnc4[nH]ccc4c3)cc2S(=O)(=O)C(F)(F)F)C(C)(C)C)cc1 ... < 50%

Then there is this compound:
# compound `Cc1ncsc1-c1ccc([C@H](C)NC(=O)[C@@H]2C[C@@H](O)CN2C(=O)[C@@H](NC(=O)CCCCCCNC(=O)c2ccc(-c3ccc(Cl)cc3)c(CN3CCN(c4ccc(C(=O)NS(=O)(=O)c5ccc(N[C@H](CCN(C)C)CSc6ccccc6)c([N+](=O)[O-])c5)cc4)CC3)c2)C(C)(C)C)cc1` ; its Dmax = < 50%

====

Listed next: entries and their corresponding pIC50.
- Test system: Caki-2 cells
- assay_info: CTG (CellTiter-Glo) cell viability assay, Caki-2
- Format: cell-based
- run_parameters: Homo sapiens, CAKI-2, 72 h, Caki-2, 3-day; read-out: CTG Chempartner/PHA- Caki-2 3-day: Average external-IC50
pIC50: −log10 of the molar value.

In the examples that follow, each entry is paired with its recorded pIC50.
1. Cc1ncsc1-c1ccc([C@H](C)NC(=O)[C@@H]2C[C@@H](O)CN2C(=O)[C@@H](NC(=O)CCCCCC(=O)N2CCN(CCCNc3ccc(S(=O)(=O)NC(=O)c4ccc(N5CCC([C@H](O)c6ccccc6-c6ccc(Cl)cc6)CC5)cc4Oc4cnc5[nH]ccc5c4)cc3S(=O)(=O)C(F)(F)F)CC2)C(C)(C)C)cc1 (single isomer, unassigned) [I-38] ... < 4.52
2. Cc1ncsc1-c1ccc([C@H](C)NC(=O)[C@@H]2C[C@@H](O)CN2C(=O)[C@@H](NC(=O)CCCCCN(CCO)CCCNc2ccc(S(=O)(=O)NC(=O)c3ccc(N4CCN(CC5=C(c6ccc(Cl)cc6)CC(C)(C)CC5)CC4)cc3Oc3cnc4[nH]ccc4c3)cc2S(=O)(=O)C(F)(F)F)C(C)(C)C)cc1 [I-100] ... < 4.52
3. Cc1ncsc1-c1ccc([C@H](C)NC(=O)[C@@H]2C[C@@H](O)CN2C(=O)[C@@H](NC(=O)CCCCCC(=O)NCC[C@H](CSc2ccccc2)Nc2ccc(S(=O)(=O)NC(=O)c3ccc(N4CCC([C@@H](O)c5ccccc5-c5ccc(Cl)cc5)CC4)cc3)cc2S(=O)(=O)C(F)(F)F)C(C)(C)C)cc1 [I-82] ... 4.52 to 5.00
4. Cc1ncsc1-c1ccc([C@H](C)NC(=O)[C@@H]2C[C@@H](O)CN2C(=O)[C@@H](NC(=O)CCCCCCCC(=O)N2CCN(Cc3ccc(-c4ccc(Cl)cc4)c(CN4CCN(c5ccc(C(=O)NS(=O)(=O)c6ccc(N[C@H](CCN(C)C)CSc7ccccc7)c([N+](=O)[O-])c6)cc5)CC4)c3)CC2)C(C)(C)C)cc1 [I-8] ... < 4.52
5. C#Cc1ccc([C@H](C)NC(=O)[C@@H]2C[C@@H](O)CN2C(=O)[C@@H](NC(=O)CCCCCC(=O)N2CCN(CC[C@H](CSc3ccccc3)Nc3ccc(S(=O)(=O)NC(=O)c4ccc(N5CCC([C@@H](O)c6ccccc6-c6ccc(Cl)cc6)CC5)cc4)cc3S(=O)(=O)C(F)(F)F)CC2)C(C)(C)C)cc1 (single isomer, unassigned) [I-29] ... 4.52 to 5.00

Measured pIC50 of C#Cc1ccc([C@H](CO)NC(=O)[C@@H]2C[C@@H](O)CN2C(=O)[C@@H](NC(=O)CCCCCC(=O)N2CCN(CC[C@H](CSc3ccccc3)Nc3ccc(S(=O)(=O)NC(=O)c4ccc(N5CCN([C@@H](O)c6ccccc6-c6ccc(Cl)cc6)CC5)cc4)cc3S(=O)(=O)C(F)(F)F)CC2)C(C)(C)C)cc1 [I-135] : 4.52 to 5.00

What the record says about Cc1ncsc1-c1ccc([C@H](C)NC(=O)[C@@H]2C[C@@H](O)CN2C(=O)[C@@H](NC(=O)CCCCCC(=O)N[C@@H]2CCN(CCCNc3ccc(S(=O)(=O)NC(=O)c4ccc(N5CCN(CC6=C(c7ccc(Cl)cc7)CC(C)(C)CC6)CC5)cc4Oc4cnc5[nH]ccc5c4)cc3S(=O)(=O)C(F)(F)F)C2)C(C)(C)C)cc1 [I-95] : pIC50 is < 4.52
